test system: HOP-62 NSCLC; experiment: NCI tumour cell line growth inhibition, 48 h
measured-property: TGI (µM)
Record the value in µM, omitting the unit from your answer.

Recorded TGI, per entry:
molecule-smiles: CNCC#Cc1c(F)ccc2c1/C(=C/c1[nH]ccc1OC)C(=O)N2
measured-target: HOP-62 NSCLC
unit-descriptor: µM
TGI: 2.68
--
molecule-smiles: Nc1nc(/C=C\c2ccc([N+](=O)[O-])s2)nc(N2CCCC2)n1
measured-target: HOP-62 NSCLC
unit-descriptor: µM
TGI: 26.7
--
molecule-smiles: COc1cc2c(C)cc(O)cc2c2cc(O)c(C)cc12
measured-target: HOP-62 NSCLC
unit-descriptor: µM
TGI: 15.5
--
molecule-smiles: CC(C)=CC[C@]12CCN[C@H]1N(S(=O)(=O)c1ccccc1)c1ccccc12
measured-target: HOP-62 NSCLC
unit-descriptor: µM
TGI: 29.1
--
molecule-smiles: CN1C2CCC1CC(=CCOC(c1ccc(F)cc1)c1ccc(F)cc1)C2
measured-target: HOP-62 NSCLC
unit-descriptor: µM
TGI: 32.2

Sample `C=CCCCCOc1ccccc1-c1cnc(OCCCCC=C)n1C` ; TGI observed: 20.6
